Provenance of the data: paper PMC6222558

# Test system: Vero cells
# experiment.summary: Cytotoxicity assay (CCK) in Vero cells
# Format: cell-based, African green monkey
# experimental.setup: African green monkey, 48 h
Classification scheme (TC50 (median toxic concentration)): LOW (below 80 µM), MID (80 µM to below 300 µM), HIGH (300 µM or more)

Sample answers from the record:
- compound: "COc1cc2c(cc1OC)-c1cc3ccc(OC)c(OC(=O)OCc4ccccc4)c3c[n+]1CC2 [4g]"
  answer.label: "HIGH"
- compound: "COc1cccc(C(=O)COc2cc3c(cc2OC)-c2cc4ccc(OC)c(OC)c4c[n+]2CC3)c1 [5e]"
  answer.label: "LOW"
- compound: "COc1cccc(C(=O)COc2c(OC)ccc3cc4[n+](cc23)CCc2cc3c(cc2-4)OCO3)c1 [2f]"
  answer.label: "LOW"
- compound: "COc1cc2c(cc1OCC(=O)C(C)(C)C)CC[n+]1cc3c(OC)c(OC)ccc3cc1-2 [5b]"
  answer.label: "MID"
- compound: "CCOC(=O)COc1c(OC)ccc2cc3[n+](cc12)CCc1cc2c(cc1-3)OCO2 [2a]"
  answer.label: "MID"
- compound: "COc1cc2c(cc1OCC(=O)OCc1ccccc1)CC[n+]1cc3c(OC)c(OC)ccc3cc1-2 [5c]"
  answer.label: "MID"
- compound: "COc1ccc2cc3[n+](cc2c1OCC(=O)O)CCc1cc2c(cc1-3)OCO2 [2d-a]"
  answer.label: "HIGH"
- compound: "COc1cc2c(cc1O)CC[n+]1cc3c(OC)c(OC)ccc3cc1-2 [JTH, jatrorrhizine, reference compound]"
  answer.label: "MID"

Q: Form: Item = COc1ccc2cc3[n+](cc2c1O)CCc1cc2c(cc1-3)OCO2 [compound 1] ; Class = ?
Result: MID

Q: Form: Item = COc1cc2c(cc1OCC(=O)c1ccc(C)cc1)CC[n+]1cc3c(OC)c(OC)ccc3cc1-2 [5d] ; Class = ?
Result: LOW

Q: Form: Item = COc1ccc2cc3[n+](cc2c1OCC(=O)C(C)(C)C)CCc1cc2c(cc1-3)OCO2 [2c] ; Class = ?
Result: LOW

* * *

Structures can show the parent of a compound that is named as a salt.
List of melting point values.

The examples below pair each entry with its known result.
- molecule: "COc1cc2c(cc1OCC(=O)c1ccc(C)cc1)CC[n+]1cc3c(OC)c(OC)ccc3cc1-2 (as salt: chloride) [5d]"
  reading: "218 to 220 °C"
- molecule: "COc1cc2c(cc1OCC(=O)C(C)(C)C)CC[n+]1cc3c(OC)c(OC)ccc3cc1-2 (as salt: chloride) [5b]"
  reading: "223 to 225 °C"

Please find the next molecule below.
Q: Reported melting point, molecule COc1cccc(C(=O)COc2c(OC)ccc3cc4[n+](cc23)CCc2cc3c(cc2-4)OCO3)c1 (as salt: chloride) [2f] : ____
Result: 214 to 216 °C

* * *

# System: Vero cells
# experiment.summary: Cytotoxicity assay (CCK) in Vero cells
# Type: cell-based, African green monkey
# experimental.setup: African green monkey, 48 h
readout.name: TC50 (median toxic concentration) (µM)
Supply the numeric figure in µM, leaving out any unit text.

The examples below pair each entry with its known result.
- molecule: "COc1cc2c(cc1OC)-c1cc3ccc(OC)c(OCC(=O)c4ccc(C(F)(F)F)cc4)c3c[n+]1CC2 [4f]"
  readout.name: "TC50 (median toxic concentration)"
  reading: 306
- molecule: "CCOC(=O)Oc1c(OC)ccc2cc3[n+](cc12)CCc1cc2c(cc1-3)OCO2 [2i]"
  readout.name: "TC50 (median toxic concentration)"
  reading: 167
- molecule: "COc1ccc2cc3[n+](cc2c1OCC(=O)c1ccc(C)cc1)CCc1cc2c(cc1-3)OCO2 [2e]"
  readout.name: "TC50 (median toxic concentration)"
  reading: 14.4
- molecule: "CCOC(=O)COc1cc2c(cc1OC)-c1cc3ccc(OC)c(OC)c3c[n+]1CC2 [5a]"
  readout.name: "TC50 (median toxic concentration)"
  reading: 250
- molecule: "COc1cccc(C(=O)COc2c(OC)ccc3cc4[n+](cc23)CCc2cc(OC)c(OC)cc2-4)c1 [4e]"
  readout.name: "TC50 (median toxic concentration)"
  reading: 143

Q: Reported TC50 (median toxic concentration), molecule COc1cc2c(cc1OC)-c1cc3ccc(OC)c(OCC(=O)C(C)(C)C)c3c[n+]1CC2 [4b] : ____
Result: 333

Q: Reported TC50 (median toxic concentration), molecule COc1cc2c(cc1OC)-c1cc3ccc(OC)c(OCC(=O)OCc4ccccc4)c3c[n+]1CC2 [4c] : ____
Result: 452

Q: Reported TC50 (median toxic concentration), molecule COc1ccc2cc3[n+](cc2c1OCC(=O)OCc1ccccc1)CCc1cc2c(cc1-3)OCO2 [2d] : ____
Result: 82.8

Q: Reported TC50 (median toxic concentration), molecule COc1cc2c(cc1OC)-c1cc3ccc(OC)c(OCC(=O)c4ccc(C)cc4)c3c[n+]1CC2 [4d] : ____
Result: 50.0

Q: Reported TC50 (median toxic concentration), molecule COc1cc2c(cc1OC)-c1cc3ccc(OC)c(O)c3c[n+]1CC2 [compound 3] : ____
Result: 254

Q: Reported TC50 (median toxic concentration), molecule CCOC(=O)COc1c(OC)ccc2cc3[n+](cc12)CCc1cc(OC)c(OC)cc1-3 [4a] : ____
Result: 434
